- target.system: PTPN11-E76K mutant enzyme (Homo sapiens (Human), UniProt Q06124, E76K)
- Sequence (Q06124 whole entry E76K): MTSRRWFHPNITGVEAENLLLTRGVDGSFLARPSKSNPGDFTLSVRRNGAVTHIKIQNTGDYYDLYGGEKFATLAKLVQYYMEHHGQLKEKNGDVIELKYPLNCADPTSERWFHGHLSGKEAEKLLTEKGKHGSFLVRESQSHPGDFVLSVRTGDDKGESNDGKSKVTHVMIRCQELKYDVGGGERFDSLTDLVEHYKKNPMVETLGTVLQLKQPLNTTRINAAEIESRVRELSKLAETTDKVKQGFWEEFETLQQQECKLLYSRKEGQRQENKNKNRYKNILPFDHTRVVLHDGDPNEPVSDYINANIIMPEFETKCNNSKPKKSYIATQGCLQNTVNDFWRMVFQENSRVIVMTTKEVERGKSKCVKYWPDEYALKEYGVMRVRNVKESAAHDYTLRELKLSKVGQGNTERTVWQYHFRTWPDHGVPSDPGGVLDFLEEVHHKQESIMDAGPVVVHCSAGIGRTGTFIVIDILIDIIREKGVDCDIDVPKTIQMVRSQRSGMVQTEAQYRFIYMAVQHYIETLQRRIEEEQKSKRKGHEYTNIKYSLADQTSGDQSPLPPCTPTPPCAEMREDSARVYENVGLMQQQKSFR
- experiment.description: PTPN11 Enzymatic Assay (DiFMUP phosphatase activity)
- Type: biochemical
- condition.set: PTPN11-E76K Avg IC50, full length PTPN11-E76K mutant enzyme 250 pM, DiFMUP 50 μM, 30 min preincubation
- Procedure: Reaction was initiated by addition of DiFMUP (50 μM) at room temperature in 384-well black plate with a final reaction volume of 20 uL in assay buffer. […] Dose-response curves were analyzed using IC50 regression curve fitting (GeneData Screener). Curves were normalized to a high controls without inhibitor, and low controls without enzyme.
pIC50: −log10 of the molar value.
quantity.name: pIC50

{"columns": ["compound", "target.system", "quantity.name", "experimental.result"],
 "data": [
  ["NC1C(F)(F)CCC12CCN(c1cnc3c(-c4cccc(Cl)c4Cl)n[nH]c3n1)CC2 (single isomer, unassigned; isomer a) [Example 65A]", "PTPN11-E76K mutant enzyme (Homo sapiens (Human), UniProt Q06124, E76K)", "pIC50", 6.63],
  ["NC1C(F)CCC12CCN(c1cnc3c(-c4cccc(Cl)c4Cl)n[nH]c3n1)CC2 (single isomer, unassigned; isomer a) [Example 64A]", "PTPN11-E76K mutant enzyme (Homo sapiens (Human), UniProt Q06124, E76K)", "pIC50", 7.01],
  ["NC1C(F)(F)CCC12CCN(c1cnc3c(-c4cccc(Cl)c4Cl)n[nH]c3n1)CC2 (single isomer, unassigned) [Example 65B]", "PTPN11-E76K mutant enzyme (Homo sapiens (Human), UniProt Q06124, E76K)", "pIC50", 6.33],
  ["NC1C(F)CCC12CCN(c1cnc3c(-c4cccc(Cl)c4Cl)n[nH]c3n1)CC2 (single isomer, unassigned) [Example 64B]", "PTPN11-E76K mutant enzyme (Homo sapiens (Human), UniProt Q06124, E76K)", "pIC50", 6.66]
]}

* * *

- target.system: PTPN11-E76K mutant enzyme (Homo sapiens (Human), UniProt Q06124, E76K)
- experiment.description: PTPN11 Enzymatic Assay (DiFMUP phosphatase activity)
- Format: biochemical
- condition.set: full length PTPN11-E76K mutant enzyme 250 pM, DiFMUP 50 μM, 30 min preincubation; read-out: PTPN11-E76K Avg IC50
pIC50: −log10 of the molar value. Structures can show the parent of a compound that is named as a salt.
Measured pIC50 values are reported for all entries that follow.

{"columns": ["molecule", "pIC50"],
 "data": [
  ["CC1(N)CCN(c2cnc3c(-c4cccc(N)c4Cl)n[nH]c3n2)CC1", 6.72],
  ["CC(N)C1(C)CCN(c2cnc3c(-c4ccnc(N)c4Cl)n[nH]c3n2)CC1 (single isomer, unassigned) [Example 113a]", 6.74],
  ["Nc1nccc(-c2n[nH]c3nc(N4CCC(N)(CO)CC4)cnc23)c1Cl", 6.37],
  ["Nc1cc(-c2n[nH]c3nc(N4CCC5(CCC[C@H]5N)CC4)cnc23)c(Cl)cn1", 6.29],
  ["CNC1(C)CCN(c2cnc3c(-c4cccc(Cl)c4Cl)n[nH]c3n2)CC1", 8.70],
  ["CC1(CN)CCN(c2cnc3c(-c4ccnc(O)c4Cl)n[nH]c3n2)CC1", 5.95],
  ["CC1(CN)CCN(c2cnc3c(-c4ccnc(N)c4Cl)n[nH]c3n2)CC1", 6.79],
  ["CC1(CN)CCN(c2cnc3c(-c4ccncc4Cl)n[nH]c3n2)CC1", 6.03],
  ["CC1(N)CCN(c2cnc3c(-c4cccc(C(F)(F)F)c4)n[nH]c3n2)CC1", 6.02],
  ["Nc1cc(-c2n[nH]c3nc(N4CCC5(CC4)COC[C@H]5N)cnc23)c(Cl)cn1", 6.30],
  ["N[C@@H]1COCC12CCN(c1cnc3c(-c4cccnc4Cl)n[nH]c3n1)CC2 [Example 41, trifluoroacetate]", 6.02],
  ["COc1cc(-c2n[nH]c3nc(N4CCC5(CCC[C@H]5N)CC4)cnc23)ccc1Cl", 6.99],
  ["Clc1cccc(-c2n[nH]c3nc(N4CCC5(CCNC5)CC4)cnc23)c1Cl", 6.10],
  ["CC1(N)CCN(c2cnc3c(-c4cn[nH]c4C(F)(F)F)n[nH]c3n2)CC1", 5.72],
  ["N[C@@H]1COCC12CCN(c1cnc3c(-c4ccccc4Cl)n[nH]c3n1)CC2", 6.80],
  ["Cc1c(Cl)cccc1-c1n[nH]c2nc(N3CCC(C)(CN)CC3)cnc12", 6.85],
  ["NCC1(O)CCN(c2cnc3c(-c4cccc(Cl)c4Cl)n[nH]c3n2)CC1", 6.69],
  ["CC1(CN)CCN(c2cnc3c(-c4cc(N)ncc4Cl)n[nH]c3n2)CC1", 6.08],
  ["CC1(N)CCN(c2cnc3c(-c4ccc(Cl)cc4)n[nH]c3n2)CC1", 6.85],
  ["NC1(CO)CCN(c2cnc3c(-c4ccccc4Cl)n[nH]c3n2)CC1", 6.40],
  ["N[C@@H]1CCCC12CCN(c1cnc3c(-c4ccccc4Cl)n[nH]c3n1)CC2", 6.92],
  ["Nc1nccc(-c2n[nH]c3nc(N4CCC5(CC4)C[C@H](O)C[C@H]5N)cnc23)c1Cl", 7.12],
  ["N[C@@H]1[C@H]2CN(c3cnc4c(-c5cccc(Cl)c5Cl)n[nH]c4n3)C[C@@H]12", 5.97],
  ["CC1(N)CCN(c2cnc3c(-c4cccc(F)c4Cl)n[nH]c3n2)CC1", 6.69],
  ["NC1(CF)CCN(c2cnc3c(-c4cccc(Cl)c4Cl)n[nH]c3n2)CC1", 6.47],
  ["N[C@@H]1CCCC12CCN(c1cnc3c(-c4ccc(F)c(Cl)c4)n[nH]c3n1)CC2", 6.31],
  ["N[C@@H]1COCC12CCN(c1cnc3c(-c4c(F)cccc4Cl)n[nH]c3n1)CC2", 6.69],
  ["CC1(CN)CCN(c2cnc3c(-c4cccc(N)c4Cl)n[nH]c3n2)CC1", 6.92],
  ["NCC1(O)CCN(c2cnc3c(-c4cccc(F)c4Cl)n[nH]c3n2)CC1", 6.21],
  ["NC1(CO)CCN(c2cnc3c(-c4c(F)cccc4Cl)n[nH]c3n2)CC1", 5.97],
  ["COc1cc(Cl)cc(-c2n[nH]c3nc(N4CCC(C)(CN)CC4)cnc23)c1", 6.52],
  ["N[C@@H]1CCCC12CCN(c1cnc3c(-c4cccc(Cl)c4F)n[nH]c3n1)CC2", 6.84],
  ["N[C@@H]1COCC12CCN(c1cnc3c(-c4ccnc(O)c4Cl)n[nH]c3n1)CC2", 5.96],
  ["CC1(N)CCN(c2cnc3c(-c4ccnc(N)c4Cl)n[nH]c3n2)CC1", 6.60]
]}
